Numbers sourced from PubChem BioAssay.

growth inhibition: recorded values
# Assay text: inhibition of 3D7 malaria parasite growth – strain 3D7 (AID 2306);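 further: 0% = DMSO wells and 100% = chloroquine plus artemisinin control wells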
# Conditions used: P. falciparum 3D7 erythrocytic growth, LDH absorbance, 72 h; at 2 µM; hits give high values
The figure you give is taken to be in %; do not add the unit.

Prompt: growth inhibition lookup needed for Cc1ccc(C(=O)Nc2cccc([N+](=O)[O-])c2)cc1S(=O)(=O)N1CC(C)CC(C)C1 (centres undefined) , thanks.
Response: 100

Prompt: Consider the compound O=C(Nc1ccc(C(=O)N2CCN(CCN3CCN(c4cccc(C(F)(F)F)c4)CC3)CC2)cc1)c1ccc(OC(F)(F)F)cc1 and give its measured growth inhibition.
Response: 95
